- System: HT-1080
- Method: Cytotoxicity against human HT1080 cells after 72 hrs by MTT assay
- Format: functional, cell-based
- Details: HT-1080, 72 h
Assignment: determine reported IC50 for the given compounds.

Query: Data request, read-out IC50, for O=C1C[C@@H](c2ccccc2)Oc2cc(O)c(O)c(O)c21
Reply: > 100 µM

Query: Data request, read-out IC50, for O=C(c1ccc(O)cc1O)[C@@H](O)Cc1ccc(O)cc1
Reply: > 100 µM

Query: Data request, read-out IC50, for CCO[C@@]12COc3cc(O)ccc3[C@@H]1Oc1cc(OC)ccc12
Reply: > 100 µM

Query: Data request, read-out IC50, for COc1ccc([C@H]2COc3cc(O)ccc3C2)c(O)c1
Reply: > 100 µM

Query: Data request, read-out IC50, for O=c1[nH]cc(F)c(=O)[nH]1
Reply: 9.45 µM

Query: Data request, read-out IC50, for COc1c(O)cc2c(c1O)C(=O)[C@H](O)[C@@H](c1ccccc1)O2
Reply: > 100 µM

Query: Data request, read-out IC50, for C=C[C@@H](c1ccccc1)c1cc(O)c(OC)cc1OC
Reply: > 100 µM

Query: Data request, read-out IC50, for O=C(/C=C/c1ccc(O)cc1)c1ccc(O)cc1O
Reply: 76.7 µM

Query: Data request, read-out IC50, for COc1ccc([C@H]2COc3cc(O)ccc3C2=O)c(O)c1
Reply: > 100 µM

Query: Data request, read-out IC50, for COc1cc(O)ccc1C(=O)/C=C/c1ccc(O)cc1
Reply: 51.2 µM

Query: Data request, read-out IC50, for COc1cc2c(cc1OC)[C@@H]1COc3cc(O)ccc3[C@@H]1O2
Reply: > 100 µM

Query: Data request, read-out IC50, for COc1ccc([C@H]2OC[C@H]3[C@@H]2CO[C@@H]3c2ccc(OC)c(OC)c2)cc1OC [(+)-EUDESMIN]
Reply: > 100 µM

Query: Data request, read-out IC50, for O=C1c2ccc(O)cc2OC1(O)Cc1ccc(O)cc1 (configuration not stated)
Reply: > 100 µM

Query: Data request, read-out IC50, for O=C1C[C@@H](c2ccc(O)cc2)Oc2cc(O)cc(O)c21
Reply: > 100 µM

Query: Data request, read-out IC50, for COc1ccc2c(c1O)O[C@@H]1c3ccc(O)cc3OC[C@H]21
Reply: > 100 µM

Query: Data request, read-out IC50, for COc1ccc([C@H]2COc3cc(OC)ccc3C2)c(O)c1
Reply: 50.1 µM

Query: Data request, read-out IC50, for COc1cc([C@@H]2OC[C@@H]3[C@H]2CO[C@H]3c2ccc(O)c(OC)c2)ccc1O [(+)-PINORESINOL]
Reply: > 100 µM

Query: Data request, read-out IC50, for O=C1C[C@@H](c2ccc(O)cc2)Oc2cc(O)ccc21
Reply: > 100 µM

Query: Data request, read-out IC50, for COc1ccc(-c2coc3cc(O)ccc3c2=O)cc1
Reply: > 100 µM

Query: Data request, read-out IC50, for COc1ccc2c(C)c(-c3ccc(O)cc3O)oc2c1
Reply: 38.7 µM

Query: Data request, read-out IC50, for COc1ccc(-c2coc3cc(O)cc(O)c3c2=O)cc1
Reply: > 100 µM

Query: Data request, read-out IC50, for COc1cc(O)ccc1[C@H]1COc2cc(O)ccc2C1
Reply: 75.3 µM

Query: Data request, read-out IC50, for COc1cc([C@H]2OC[C@H]3[C@@H]2CO[C@@H]3c2cc(OC)c(O)c(OC)c2)cc(OC)c1O
Reply: > 100 µM

Query: Data request, read-out IC50, for COc1ccc2c(c1)O[C@H]1c3ccc(O)c(OC)c3OC[C@@H]21
Reply: 96.3 µM

Query: Data request, read-out IC50, for O=c1c(-c2ccc(O)cc2)coc2cc(O)ccc12
Reply: > 100 µM

Query: Data request, read-out IC50, for COc1ccc2c(c1)O[C@@H]1c3ccc(O)cc3OC[C@H]21
Reply: 28.4 µM

Query: Data request, read-out IC50, for COc1ccc(-c2coc3cc(O)ccc3c2=O)c(O)c1
Reply: > 100 µM

Query: Data request, read-out IC50, for COc1c(O)cc2c(c1O)C(=O)C[C@@H](c1ccccc1)O2 [DIHYDROOROXYLIN A]
Reply: 47.6 µM

Query: Data request, read-out IC50, for COc1ccc([C@H]2COc3cc(O)cc(O)c3C2=O)c(O)c1
Reply: > 100 µM

Query: Data request, read-out IC50, for COc1c(O)cc2oc(-c3ccccc3)c(O)c(=O)c2c1O
Reply: > 100 µM

Query: Data request, read-out IC50, for COc1cccc2c1C(=O)c1c(O)c3c(c(O)c1C2=O)C[C@@](O)(C(=O)CO)C[C@@H]3O[C@H]1C[C@H](N)[C@H](O)[C@H](C)O1
Reply: 9.32 µM

Query: Data request, read-out IC50, for O=C1c2ccc(O)cc2O[C@H](c2ccc(O)cc2)[C@H]1O
Reply: > 100 µM

Query: Data request, read-out IC50, for COc1ccc(-c2coc3cc(O)cc(O)c3c2=O)c(O)c1
Reply: > 100 µM

Query: Data request, read-out IC50, for COc1ccc([C@H]2COc3cc(O)ccc3C2)c(OC)c1O
Reply: 18.2 µM

Query: Data request, read-out IC50, for COc1ccc2c(c1)O[C@H]1c3ccc(O)c(O)c3OC[C@@H]21
Reply: > 100 µM

Query: Data request, read-out IC50, for COc1cc2c(cc1O)O[C@H](c1ccccc1)CC2=O
Reply: 7.9 µM

Query: Data request, read-out IC50, for COc1ccc(-c2coc3cc(O)ccc3c2=O)cc1O
Reply: > 100 µM

Query: Data request, read-out IC50, for COc1ccc([C@H]2COc3cc(O)ccc3C2=O)c(OC)c1O
Reply: > 100 µM

Query: Data request, read-out IC50, for COc1ccc(-c2coc3cc(O)cc(O)c3c2=O)cc1O
Reply: > 100 µM

Query: Data request, read-out IC50, for O=C1c2ccc(O)cc2O[C@H](c2ccccc2)[C@H]1O
Reply: > 100 µM

Query: Data request, read-out IC50, for COc1cc2c(cc1O)O[C@H](c1ccccc1)[C@@H](O)C2=O
Reply: > 100 µM

Query: Data request, read-out IC50, for O=C(/C=C/c1ccccc1)c1ccc(O)cc1O [2',4'-DIHYDROXYCHALCONE]
Reply: 34 µM
